Listed here are compounds together with their documented IC50.
target: PRMT5-MTA (Homo sapiens, UniProt O14744); test: Enzymatic inhibitory activity against PRMT5-MTA (AlphaScreen); type: biochemical; conditions: read-out: IC50
Sequence (O14744 whole entry): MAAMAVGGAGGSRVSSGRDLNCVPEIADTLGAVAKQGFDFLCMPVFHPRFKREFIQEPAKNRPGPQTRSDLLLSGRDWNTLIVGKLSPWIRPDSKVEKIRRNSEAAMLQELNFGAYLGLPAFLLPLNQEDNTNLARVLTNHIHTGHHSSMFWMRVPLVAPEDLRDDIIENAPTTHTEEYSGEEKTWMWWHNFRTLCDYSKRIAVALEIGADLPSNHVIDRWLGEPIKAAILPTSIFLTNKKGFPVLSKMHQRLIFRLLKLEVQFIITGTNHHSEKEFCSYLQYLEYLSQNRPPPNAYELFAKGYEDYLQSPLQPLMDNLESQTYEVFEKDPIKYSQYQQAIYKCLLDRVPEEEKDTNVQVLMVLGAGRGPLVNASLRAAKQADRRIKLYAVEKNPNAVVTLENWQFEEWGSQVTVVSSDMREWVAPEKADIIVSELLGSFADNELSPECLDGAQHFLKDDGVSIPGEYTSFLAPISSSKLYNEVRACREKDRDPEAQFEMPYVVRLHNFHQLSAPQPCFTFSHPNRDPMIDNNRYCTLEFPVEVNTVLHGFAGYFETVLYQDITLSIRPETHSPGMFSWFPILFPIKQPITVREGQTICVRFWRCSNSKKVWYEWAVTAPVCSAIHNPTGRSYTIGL
Sequence (Q9BQA1 whole entry partner): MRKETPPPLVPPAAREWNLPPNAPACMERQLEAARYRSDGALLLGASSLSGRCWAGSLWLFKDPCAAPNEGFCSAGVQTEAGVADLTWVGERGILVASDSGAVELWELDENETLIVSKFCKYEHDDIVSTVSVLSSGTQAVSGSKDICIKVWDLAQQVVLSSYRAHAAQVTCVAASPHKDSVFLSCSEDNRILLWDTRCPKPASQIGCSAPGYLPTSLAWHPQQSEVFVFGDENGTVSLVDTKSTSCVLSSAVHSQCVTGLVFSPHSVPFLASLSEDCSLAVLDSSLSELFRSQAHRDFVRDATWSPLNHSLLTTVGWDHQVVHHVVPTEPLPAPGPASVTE
attribute_measured: IC50 (nM)

                                   compound  attribute_measured  scale_unit  assay_result
0  Cc1cc2cc(C(=O)N(Cc3ccc(-c4cc[nH]c4)cn3)N(C)c3ncccn3)ccc2nc1N                IC50          nM           2.5
1  Cc1cc2cc(C(=O)N(Cc3ccc(Br)cn3)N(C)c3ncccc3C(F)(F)F)ccc2nc1N                IC50          nM           2.3
2  Cc1cc2nc(N)c3cnn(C)c3c2cc1C(=O)N1CCCN1c1nccc2nccnc12                IC50          nM           2.1
3  CN(c1ncccn1)N(Cc1ccc(C(F)(F)F)cn1)C(=O)c1cc2c(cc1F)nc(N)c1cnn(C)c12                IC50          nM             2
4  Cc1cc2nc(N)c3cnn(C)c3c2cc1C(=O)N1CC(C)CN1c1cc(F)ccn1 (centres unmarked)                IC50          nM           3.4
5  Cn1ncc2c(N)nc3cc(Cl)c(C(=O)N4CC(C)(F)CN4c4ncccc4F)cc3c21 (centres unmarked)                IC50          nM           8.3
6  Cc1cc2cc(C(=O)N(Cc3ccc(C(F)(F)F)cc3F)N(C)c3ncccn3)ccc2nc1N                IC50          nM           4.5
7  Cc1cc2nc(N)c3cnn(C)c3c2cc1C(=O)N1CC(c2ccccc2)CN1c1ncccc1F (centres unmarked)                IC50          nM           3.1
